Sourced from patent US20170189529A1

assay-system: recombinant HA of influenza B virus B/Mass/12 (Yamagata clade) (influenza B virus B/Mass/12 (Yamagata …))
test-protocol: recombinant HA ELISA (AttoPhos fluorescence, mean of triplicates)
reported-metric: fold reactivity over background (fold over background)
Report the value in fold over background with no unit label.

// recorded fold reactivity over background for TRL809 (antibody, V domains shown) VH: QVQLLESGGGVVRPGRSLRLACAGSGFTFSAYAMHWVRQAPGKGLEWVAHTSYDGRDSYYVDSVKGRFTISRDDSKNTLYLQMNSLRPEDTAVYYCAKVGPYTGYDDYNYYGMDVWGHGTTVTVSS VL: DIVLTQSPVSLAVSLGESATVNCKSSQSVLSNSKNLNYLAWYQHKPGQPPKLLIYWASTRESGVPDRFSGSGSGTDFTLTISSLQAEDVAVYYCQQHYSIPLTFGPGTKVDIKR : 25.6
